The reported numbers originate from the supplement of paper PMC9170038.

- Test system: MS2 coat protein
- method-summary: apparent KD of MS2 coat protein; designed switch direction (-1 OFF switch, 1 ON switch): 1; higher = weaker reporter binding
- measurement-setup: input ligand: FMN 200 uM
measurement-type: apparent KD of MS2 coat protein
The number alone won't do; follow it with the unit.

Answered examples (3):
biopolymer-sequence	apparent KD of MS2 coat protein
AGGAAACAUGAGGAUCACCCAUGUAAGAUAUACACAGGAUAUGCGAAAAGAAACAAAGAAGCAGAAGGGUGGAAAA [75%, Ex sub1, 11] (Eterna round: R96, puzzle: Same State 1)	0.0166 µM
UUAAUUUACUGAGGAUAUCGUGUCGACUGAGUUGACAUGAGGAUCACCCAUGUGAGAAGUGGUAUCGAGAAGGCAGUUUUCUUA [JR_SSNG2_Sub025] (Eterna round: R96, puzzle: Same State NG 2)	0.0178 µM
GGUGCCAAUAAAGCCUACAUGAGGAUCACCCAUGUAUGUAGGCAGGAUAUCGUUUGCUUUGCAAACGAGAAGGGCCGAGGCACC [JL SSNG3 1.19] (Eterna round: R96, puzzle: Same State NG 3)	0.0204 µM

apparent KD of MS2 coat protein measured on UCGAGCGUACUUGCAGACAUGAGGAUCACCCAUGUAAAUGGGAAGGAUAUGGUACCGUUUCGGUACCAGAAGGUCCUAGGUGCU [salish99_SSNG3_r04_306] (Eterna round: R96, puzzle: Same State NG 3) = 0.25 µM

apparent KD of MS2 coat protein measured on AGUAGUUUAACAUGAGGAUCACCCAUGUAUCUAUCUGUAACCUAGGAUAUGGAGGUUUUAUUUAACCAGAAGGAGGAUUGUUUA [JR_SSNG3_Sub044] (Eterna round: R96, puzzle: Same State NG 3) = 0.0198 µM

apparent KD of MS2 coat protein measured on AUAUGAGGAGCAGGAUAUGCGGAGAAGAAAGAAGCAGAAGGGCUCAUGGGACGACAUGAGGAUCACCCAUGUACUCCGCGAUGA [AK SSNG1-V2-5] (Eterna round: R96, puzzle: Same State NG 1) = 0.103 µM

apparent KD of MS2 coat protein measured on GUACAGAUCACAGGAUAUCACGUCGAUUAGACGUGAGAAGGGUGAUCACACAUGAAUAUUAAUACAUGAGGAUCACCCAUGUAC [SSNG1/16-A2] (Eterna round: R96, puzzle: Same State NG 1) = 0.0656 µM

apparent KD of MS2 coat protein measured on AUUAAUAAUGCAGGAUAUGAUUAACAUGAGGAUCACCCAUGUGGUGUUGUGAGUAAGGAGAGUGAUCAGAAGGGCAUUUUUUUU [JMF's solution 27] (Eterna round: R96, puzzle: Same State NG 2) = 0.552 µM

apparent KD of MS2 coat protein measured on GCUCGAUGAGCGUUCUACAUGAGGAUCACCCAUGUUCGUGGGCAGGAUAUUUACAUGCAGAGUGUAGAGAAGGGCCCAUCGAGC [SameState NG3 #66] (Eterna round: R96, puzzle: Same State NG 3) = 0.205 µM
